Where these numbers come from: a collection of fitness landscapes (doi:10.1016/j.celrep.2020.107928)

B1: Caulobacter ParB omega fusion; a variant is named by its letters at X, in order, B8GW30 (parent)
chain: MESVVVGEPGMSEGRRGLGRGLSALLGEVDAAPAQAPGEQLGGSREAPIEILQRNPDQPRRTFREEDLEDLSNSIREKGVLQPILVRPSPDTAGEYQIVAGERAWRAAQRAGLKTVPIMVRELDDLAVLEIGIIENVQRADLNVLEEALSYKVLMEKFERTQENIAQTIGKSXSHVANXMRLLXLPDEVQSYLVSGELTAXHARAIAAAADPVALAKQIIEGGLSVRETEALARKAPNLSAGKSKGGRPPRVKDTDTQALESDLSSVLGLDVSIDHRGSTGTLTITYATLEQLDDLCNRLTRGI

Variants of: B1
assay_remarks: one-hybrid fitness for binding NBS DNA (the Noc-binding site; scaled: cognate 1, non-cognate 0); higher = stronger binding
assay_context: with NBS DNA site
In all, about 81,000 sequences were measured (“one-hybrid fitness for binding NBS DNA”: median about -0.1, highest 2% from about 0.36 on). This is one part of a sample in which the highest values are shown more often than they occur.
one-hybrid fitness for binding NBS DNA values by entry
quantity_kind: one-hybrid fitness for binding NBS DNA

1. RHHR | 0.447
2. QIMY | ≤ 0.2
3. HYMR | ≤ 0.2
4. WDHG | ≤ 0.2
5. RHLR | 0.329
6. IEST | ≤ 0.2
7. CQVS | ≤ 0.2
8. QIST | 0.311
9. RKWA | 0.249
10. QTDS | 0.331
11. QTNN | 0.327
12. CRQG | ≤ 0.2
13. RHWR | 0.256
14. CAIM | ≤ 0.2
15. PSGT | ≤ 0.2
16. RHQR | 0.448
17. QPST | ≤ 0.2
18. QTNH | 0.495
19. QCST | 0.553
20. QTNQ | 0.377
21. MKRL | ≤ 0.2
22. TAAM | ≤ 0.2
23. ASEC | ≤ 0.2
24. YLRS | ≤ 0.2
25. RHPR | ≤ 0.2
26. VSMF | ≤ 0.2
27. RKKA | 0.514
28. CCAY | ≤ 0.2
29. SHTT | ≤ 0.2
30. RHIR | ≤ 0.2
31. RSKA | 0.343
32. QANY | ≤ 0.2
33. RRKA | 0.712
34. RCKA | 0.423
35. RTKA | 0.479
36. RPKA | ≤ 0.2
37. GYMF | ≤ 0.2
38. QKKY | 0.498
39. LQRF | ≤ 0.2
40. RHRC | 0.295
41. RKCC | ≤ 0.2
42. QSNY | ≤ 0.2
43. RTVA | ≤ 0.2
44. ARTM | ≤ 0.2
45. PKYY | ≤ 0.2
46. QHSL | ≤ 0.2
